Values were extracted from BindingDB's records for patent US20240174696.

- TARGET UNDER TEST: Serine/threonine-protein kinase LATS2 (Homo sapiens)
- Sequence (Q9NRM7 whole entry): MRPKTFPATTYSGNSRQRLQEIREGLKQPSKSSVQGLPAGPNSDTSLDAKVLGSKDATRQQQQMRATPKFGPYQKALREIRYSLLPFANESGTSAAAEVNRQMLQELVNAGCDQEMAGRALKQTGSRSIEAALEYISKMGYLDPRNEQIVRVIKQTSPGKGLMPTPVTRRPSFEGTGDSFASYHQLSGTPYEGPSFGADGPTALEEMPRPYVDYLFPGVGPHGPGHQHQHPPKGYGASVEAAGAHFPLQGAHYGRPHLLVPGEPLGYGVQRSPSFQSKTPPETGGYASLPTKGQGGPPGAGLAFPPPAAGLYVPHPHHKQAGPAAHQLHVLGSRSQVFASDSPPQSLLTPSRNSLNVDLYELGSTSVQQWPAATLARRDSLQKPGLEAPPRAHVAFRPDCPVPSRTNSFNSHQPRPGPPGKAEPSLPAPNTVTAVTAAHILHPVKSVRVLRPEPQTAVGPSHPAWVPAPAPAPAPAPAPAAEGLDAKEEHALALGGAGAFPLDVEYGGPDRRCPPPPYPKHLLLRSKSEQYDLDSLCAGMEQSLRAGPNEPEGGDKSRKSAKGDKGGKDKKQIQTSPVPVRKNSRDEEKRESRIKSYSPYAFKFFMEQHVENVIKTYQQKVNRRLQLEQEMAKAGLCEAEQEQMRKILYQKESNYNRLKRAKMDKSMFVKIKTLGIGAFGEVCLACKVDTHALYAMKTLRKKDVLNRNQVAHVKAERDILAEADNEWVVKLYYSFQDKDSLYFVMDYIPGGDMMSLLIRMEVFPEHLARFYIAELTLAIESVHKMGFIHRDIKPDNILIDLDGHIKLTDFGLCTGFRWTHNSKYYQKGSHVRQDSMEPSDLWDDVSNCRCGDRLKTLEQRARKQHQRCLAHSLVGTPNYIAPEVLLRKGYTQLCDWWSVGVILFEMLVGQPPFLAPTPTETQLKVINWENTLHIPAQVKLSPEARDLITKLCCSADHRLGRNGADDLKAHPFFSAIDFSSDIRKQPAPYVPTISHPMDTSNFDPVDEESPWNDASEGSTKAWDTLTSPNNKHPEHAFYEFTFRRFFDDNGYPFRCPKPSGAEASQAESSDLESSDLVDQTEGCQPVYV
TEST READOUT: Ki (nM)
Enter your answer as a number in nM; do not include the unit.

Supply reported Ki belonging to this compound: COc1cncc2nc(-c3ccncc3)nc(N3CCC4(CCN(C)C4)CC3)c12 [US20240174696, Compound 252]
0.022
